Tested on: human hepatic myofibroblasts
Assay: DNA synthesis ([3H] thymidine incorporation) in human hepatic myofibroblasts stimulated with PDGF-BB
Type: cell-based
Conditions: 20 ng/ml PDGF-BB, 30 h, read-out: half maximal inhibition of DNA synthesis elicited by PDGF-BB
pIC50: −log10 of the molar value.
Result Type: pIC50

Query block: What is its pIC50 for human hepatic myofibroblasts? Entry: Cc1c(C(=O)NN2CCCCC2)nn(-c2ccc(Cl)cc2Cl)c1-c1ccc(Cl)cc1
Result block: 6.40 to 6.52
